B1: library; numbered along this chain (parent)
chain: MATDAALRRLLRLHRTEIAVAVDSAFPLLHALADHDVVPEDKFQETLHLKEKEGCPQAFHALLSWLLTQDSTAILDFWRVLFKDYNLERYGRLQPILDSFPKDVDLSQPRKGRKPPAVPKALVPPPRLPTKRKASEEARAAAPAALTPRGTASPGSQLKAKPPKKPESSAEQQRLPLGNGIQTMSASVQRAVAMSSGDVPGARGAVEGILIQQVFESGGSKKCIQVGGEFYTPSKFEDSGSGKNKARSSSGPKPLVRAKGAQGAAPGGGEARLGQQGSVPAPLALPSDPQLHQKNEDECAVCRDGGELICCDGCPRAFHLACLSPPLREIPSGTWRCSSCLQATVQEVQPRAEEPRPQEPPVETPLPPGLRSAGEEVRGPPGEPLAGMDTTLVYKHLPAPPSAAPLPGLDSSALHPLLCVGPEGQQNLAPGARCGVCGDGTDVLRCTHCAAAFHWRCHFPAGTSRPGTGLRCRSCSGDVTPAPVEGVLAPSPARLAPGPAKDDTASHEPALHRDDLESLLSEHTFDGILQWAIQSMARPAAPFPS

- Variants of: B1
- assay-info: AIRE transcriptional activation functional score (insulin promoter-GFP; nonsense median 0, synonymous median 1) (normalised score); higher = higher AIRE activity (more reporter activation)
- test-settings: with insulin promoter-GFP reporter in HEK293
Reported AIRE transcriptional activation functional score values for a set of variants
Form: value (number only, do not type unit).

query: Reported AIRE transcriptional activation functional score, variant C55A : ____
result: -0.603

query: Repeat for the following variant: S402G
result: 1.34

query: And what about the variant Q57W ?
result: -0.29
